experimental-system: Alkaline phosphatase, tissue-nonspecific isozyme (Homo sapiens)
protocol-text: human TNAP enzyme inhibitors, primary screen, biochemical, luminescent, no phosphate acceptor, uHTS (AID 1012);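 further: 0% = DMSO negative control and 100% = EDTA positive control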
cond: purified TNAP, CDP-star luminescence, 30 min; at 20 µM; hits give high values
About 520 (0.26%) of roughly 200,000 compounds were called active. The full list was thinned out, with actives kept by preference.
Each record here notes measured inhibition.
Give a bare numeral; the unit % is implied.

Examples with answers:
[
  {
    "compound": "CC(C)NC(=O)NCCCCCCS(C)=O (stereo not given)",
    "experimental-system": "Alkaline phosphatase, tissue-nonspecific isozyme (Homo sapiens)",
    "readout-name": "inhibition",
    "measured": -6.1
  },
  {
    "compound": "CC(C)(C)OC(=O)N1CCC(NC(=O)c2[nH]cnc2C(=O)N[C@@H](Cc2ccccc2)C(=O)OCc2ccccc2)CC1",
    "experimental-system": "Alkaline phosphatase, tissue-nonspecific isozyme (Homo sapiens)",
    "readout-name": "inhibition",
    "measured": -3.5
  },
  {
    "compound": "COC(=O)C1=CN(Cc2ccc(OC)c(OC)c2)C=C(C(=O)OC)C1c1cccs1",
    "experimental-system": "Alkaline phosphatase, tissue-nonspecific isozyme (Homo sapiens)",
    "readout-name": "inhibition",
    "measured": -7.4
  },
  {
    "compound": "COc1ccc(Cl)cc1NC(=O)[C@@H]1CCCN1C(=O)c1cccs1",
    "experimental-system": "Alkaline phosphatase, tissue-nonspecific isozyme (Homo sapiens)",
    "readout-name": "inhibition",
    "measured": -0.4
  },
  {
    "compound": "CCCc1nc(SCC(=O)Nc2ccc(S(=O)(=O)N(C)C)cc2)c2ccccc2n1",
    "experimental-system": "Alkaline phosphatase, tissue-nonspecific isozyme (Homo sapiens)",
    "readout-name": "inhibition",
    "measured": 17.6
  }
]

# value of inhibition, Alkaline phosphatase, tissue-nonspecific isozyme (Homo sapiens), item `Cc1ccc(NC(=O)COC(=O)CCc2nc3ccccc3n2-c2ccccc2)c(C)c1` = -12.9

# value of inhibition, Alkaline phosphatase, tissue-nonspecific isozyme (Homo sapiens), item `O=C(CSc1nc(O)c(Cc2ccccc2)c(=O)[nH]1)Nc1nc2c(s1)CCCC2` = -7.1

# value of inhibition, Alkaline phosphatase, tissue-nonspecific isozyme (Homo sapiens), item CN(CCc1cn[nH]c1)C(=O)CC1C(=O)NCCN1Cc1cccc(Oc2ccccc2)c1 (stereo not given) = -9.2

# value of inhibition, Alkaline phosphatase, tissue-nonspecific isozyme (Homo sapiens), item `CCCOc1ccccc1-c1nc(SCCC(=O)O)n[nH]1` = 8.1

# value of inhibition, Alkaline phosphatase, tissue-nonspecific isozyme (Homo sapiens), item `COc1ccc(NC(=O)c2cc3nc(-c4ccccc4)cc(C)n3n2)cc1OC` = -14.7
